- Assay details: soluble on expression in E. coli; label from the status in PepcDB or PDB records
Observable: soluble on expression in E. coli

- Biopolymer sequence: "MGSDKIHHHHHHMTNDSIKSETEVAPRDQSAVGTIPWAIKGELILNCNCTVFCPCVVSLGKHPPTEGYCQAWAGVRIDEGHYGDADLSGLNVGLVLEIPGLMARGNWKAAAYIDERASDAAYEGLIDVFSGKARGTTGLFKVLVSEFLGAERAPVLFETEGKTRRLIVGYYIHGEVVPVGGADSDQDIVVTNTEYWMGPDITVATATKGRVRAFGRVWDFDGRSAEICQIDWKGPR"
  Observable: "soluble on expression in E. coli"
  Result: "not soluble"
- Biopolymer sequence: "MSYFSHQDPNNPESHINFTMAQMEIQRWTLLISNPEADASTLVMELKTVTGESKHFINQAINAMWALMKLPILRVVVETHFHVRIPYLARIMQAVKQAKPELWDELDHRIAEKLTPRIAGQALMEASALAGLITRWIKELDPTFTGKKRGPKGSDGTLTFRHVDGRTYISGNIDGVTGKLFQKALEKVKQKGEDLARALVTFLAGRTKVKIVSAVYTPLVGGVSWIPGVGFLSQEESRKLGKTASKVIDLDTIATRVENGYTPSPELRLYVMGRDGTCRHPGCTVSADNCQIDHVIPFGEGGLTVAWNLQCLCAHHHNMKTDGRIQAAIDSMGRVAWIGPCNRTVVTEPVGPLAQEMPTGQWGQTLEARMEKTFEKLRSSLEVLDDLEHHHHHH"
  Observable: "soluble on expression in E. coli"
  Result: "soluble"
- Biopolymer sequence: "MGSDKIHHHHHHMANFSYEVFSKVVERGTLAKAAAELNVTPSAVSHSVSQLETELGFPLLIRNRTGVALTEDGAQVLPIIQSIQNLEEQLTQVADNINGVNTGRIRIGAFSSVSTNWLPTIIRRFKKRYPHIEISVVQGTFNRIVEAVRLGTADIGFSSLPVGPGVVVEPLLKDPIYCITAKQFKPKNGRTVTQADVDKQNFILQQIDYDRDTKNALDRYHVSSNAINYSIDDQSILSMVESGLGMGILPKLAVQKLVGDVNMYPFSEPFERTLCLVINPTIKKSPSVQRMQQVIHSFLAETYGEAFLGHQG"
  Observable: "soluble on expression in E. coli"
  Result: "not soluble"
- Biopolymer sequence: "GAMGSEESLKHATRIIDEVVSKFLDDLGNAKSHLMSLYSACSSEVPPGPVDQKFQSIVIGCALEDQKKIKRRLETLLRNIDNSDKAIK"
  Observable: "soluble on expression in E. coli"
  Result: "soluble"
- Biopolymer sequence: "MLIRYRKNYEKIAMGLLSFMPTEKDLKRLQQTMKQYETNNDWQLFLWKEGDDIVGIIGVLLRAPDVVEIQHISVNPSHRHQGIGKQMVKALKEVYPGRRLCANEWTASFFDKCHACNE"
  Observable: "soluble on expression in E. coli"
  Result: "not soluble"
- Biopolymer sequence: "MGSDKIHHHHHHMAGTTTTRKKFRVAVSGATVDGREIKPEHLRDAAANYSPDVYGARVNVEHYLSPYPDSDFGAMGDVTALSAEDITDGPLSGRTALYAEIEPSARMKQLTDAGKKVFSSIELHPQFALNGKAYVMGLAMTDTPASLGTERLKFATQQRAQVMAFNNQQAEAPMFSDAIEADVIELTAQRGEEGKQWFNRVMGIMGKGKKSDDERFSQVHQAVEVVAQSQADLSDQFSAVEQARASDKQAIEKLTSDFEALRQKLSVTDGSFSHRPPAGGGNNSQLADY"
  Observable: "soluble on expression in E. coli"
  Result: "not soluble"
